assay: Compound cytotoxicity, XTT-based colorimetric assay; format: cell-based; details: human; uninfected MT2 cells, day 4, XTT
quantity.kind: CC50 at 4 days

1) Cn1nc(NS(C)(=O)=O)c2c(Cl)ccc(-n3c([C@H](Cc4cc(F)cc(F)c4)NC(=O)Cn4nc(C(F)F)c5c4C(F)(F)[C@@H]4C[C@H]54)nc4cc(-n5nccc5C(F)(F)F)ccc4c3=O)c21 (atropisomer, axis not shown; (P)); > 100 nM

Input: // lookup CC50 at 4 days for Cc1cc(-c2ccc3c(=O)n(-c4ccc(Cl)c5c(NS(C)(=O)=O)nn(C)c45)c([C@H](Cc4cc(F)cc(F)c4)NC(=O)Cn4nc(C(F)F)c5c4C(F)(F)[C@@H]4C[C@H]54)nc3c2)nn1CC(F)(F)C(F)(F)F (atropisomer, axis not shown; (P))
Output: > 100 nM
